For each of the compounds below, state its melting point.

Q) Provide measured melting point value, entry: CCOC(=O)C1=C(c2ccccc2)Nc2n[nH]cc2C1c1cccc(Cl)c1Cl (stereo not given)
A) 214 °C

Q) For the compound `COc1ncnc2nc(-c3ccccc3)cnc12` , give its measured melting point value.
A) 205 to 207 °C

Q) Identify melting point associated with the compound O=C(NCCNCC1COc2ccccc2O1)C12CC3CC(CC1C3)C2 (stereo not given)
A) 143 to 144 °C

Q) Quote melting point reported for `Cc1sc2c(Br)c3ccccc3c(-c3cc(Br)c(O)c(NC(=O)OC(C)(C)C)c3)c2c1C` please.
A) 205 to 207 °C

Q) Consider the compound `COc1ccc2cc(C(=O)CNC(=O)c3cn(Cc4ccccc4)c4ccccc34)ccc2c1` and give its recorded melting point.
A) 177 to 179 °C

Q) Hello, please tell me recorded melting point for this one: `CCC1(C)CCN(C(=O)CN(C(=O)CNC(=O)Nc2cccc(C)c2)c2ccccc2)CC1`
A) 204 °C

Q) Complete the entry with melting point for `Cn1cnc(COc2nc3c(cc2C(C)(C)C)nnn3-c2cc(F)ccc2F)n1`
A) 154 to 157 °C

Q) Fill in melting point for record `CC(=O)c1cccc(-c2ccc(O)cc2)c1`
A) 146 to 149 °C

Q) Entry CCCCCc1c(C(O)CC)nc(C(C)C)c(CO)c1-c1ccc(F)cc1 (stereo not given) needs its melting point filled in; supply it.
A) 89 to 90 °C

Q) Entry `N#Cc1cc(Br)c2c(c1)N(C1CC1)CNS2(=O)=O` needs its melting point filled in; supply it.
A) 250 to 253 °C

Q) Note melting point for the compound shown: CN1CC(=O)OC2CCN(C(=O)c3ccc(NC(=O)c4ccccc4Cl)cc3)c3ccccc3C21 (stereo not given)
A) 286 to 290 °C

Q) Give me measured melting point, please, for this compound: `O=[N+]([O-])c1ccc2c(C3=CCN(CCCOc4cccc5[nH]ccc45)CC3)c[nH]c2c1`
A) 215 to 225 °C

Q) Tell me measured melting point for COc1ccc(C(=O)Nc2c(C)c(C)c3c(c2C)C(c2ccccc2)C(C)(C)O3)cc1 (stereo not given) please.
A) 190 to 192 °C

Q) Look up and report measured melting point for this entry: `CCc1cccc(CNC[C@@H](O)[C@H](Cc2cc(F)cc(F)c2)NC(=O)c2ccc(CS(C)(=O)=O)s2)c1`
A) 128 to 131 °C

Q) Item `CCNC(=O)c1cnn(-c2ccccc2)c1Br` : provide melting point
A) 158 to 160 °C

Q) Recall and state the measured melting point for `CCOc1cccc(-c2n[nH]c(-c3ccccc3C)n2)c1` .
A) 84 to 86 °C

Q) Please list melting point recorded for the compound `Cc1cc(Oc2ccc(N)cc2)ccc1-c1ccc(Oc2ccc(N)cc2)cc1C`
A) 140 °C

Q) Name the recorded melting point of the item COC(=O)c1ccccc1SC1=C(O)CC(CCc2ccccc2)(c2ccccc2)OC1=O (stereo not given) in your answer.
A) 91 to 92 °C

Q) Please look at this compound and report its melting point: `Nc1ccc2c(c1)ncn2-c1ccccc1O`
A) 202 to 203 °C

Q) Give reported melting point value for CN1C(=O)C(c2cccc(-c3cncnc3)c2)(c2cscn2)N=C1N (stereo not given)
A) 234 to 237 °C

Q) For `Cc1oc(-c2ccc(F)cc2)nc1CO` , write its melting point.
A) 153 to 155 °C

Q) Read the entry `CCOC(=O)C(=CNCc1cnsn1)C(=O)c1cc(F)c(F)c(F)c1F` and write its reported melting point.
A) 154 to 156 °C

Q) Determine from records and report melting point for `CCCCCCCCCCCCCCCCCCOc1cc(OC(C)=O)cc(N(CC(=O)O)CC(=O)O)c1`
A) 122 to 127 °C

Q) Give the reported value of melting point for this record: CC(C)(C)C(=O)C(Br)Oc1ccc(S(=O)(=O)c2ccccc2)cc1 (stereo not given)
A) 157 to 162 °C

Q) Quickly give me recorded melting point for `Nc1ccccc1C(=O)/C=C/c1nccn1C(c1ccccc1)(c1ccccc1)c1ccccc1`
A) 142 to 144 °C

Q) Recall and state the measured melting point for `CN(C(C)(C)CC(=O)Oc1ccccc1C(C)(C)C)S(=O)(=O)C(F)(F)F` .
A) 42 to 44 °C

Q) Give me measured melting point, please, for this compound: `CON1CCC2(CC1)NC(=O)C(c1c(C)cc(C#C[Si](C)(C)C)cc1C)=C2O`
A) > 240 °C

Q) Given `CN(C)N1CSC(=CCc2cc(C(C)(C)C)c(O)c(C(C)(C)C)c2)C1=O` , respond with its melting point.
A) 181 to 186 °C

Q) Specify reported melting point for the compound shown: `COc1ccc(C(=O)NCc2ccc(NC3=NCCN3)cc2)cc1`
A) 160 to 161 °C

Q) Specify measured melting point for CC12CCC(=O)C=C1CCC1C2CCC2(C)C(C(=O)NC3C4CC5CC(C4)CC3C5)CCC12 (stereo not given) .
A) 244 to 246 °C

Q) Indicate its recorded melting point; the compound in question is `O=C(NC1CCN(CCCc2ccc(F)cc2)CC1)C1=Cc2cnc3cccc(n23)S1`
A) 117 to 119 °C

Q) Identify measured melting point associated with `CCNC(=O)c1cc(NC)ccc1[Si](C)(C)C`
A) 101 to 102 °C

Q) Please supply the value of reported melting point for the item `CC(=O)OCCn1c(=O)sc2ccc(-c3nc4ccccn4c3C)cc21`
A) 113 to 115 °C

Q) Write down melting point measured for item `O=C(c1ccc(-c2cnc3c(c2)N(Cc2c(Cl)cccc2Cl)C(=O)CN3)cc1)N1CCC(N2CCCC2)CC1`
A) 199 °C

Q) Give the value of melting point reported for the following: `Oc1ccnc2cc(Cl)c(F)cc12`
A) > 300 °C

Q) Using known records, supply melting point for `CC(=O)c1cc(O)cc2cc(-c3ccc(O)cc3)oc12`
A) 274 to 276 °C

Q) Using the record for `Cc1cccc(N2CCN(CCCCCC(=O)N3Cc4ccccc4C3)CC2)c1C#N` , state its measured melting point.
A) 126 °C

Q) Read off the recorded melting point for CCOc1nc(N)c2ncn(C3C=CCCC3)c2n1 (stereo not given)
A) 67 to 72 °C

Q) Read the entry `CC1(C)CC(C)(C)CC(C)(NC=O)C1` and write its reported melting point.
A) 104 to 106 °C

Q) Give the reported value of melting point for this record: `COc1ccc(OCc2ccccc2)c2[nH]c(C)c(C)c12`
A) 76 °C
